target-under-test: Tubulin (Bos taurus) (UniProt Q6B856+Q862L2+Q862F3)
test-name: The compound was evaluated for its effect on tubulin polymerization in the absence of MAPS as rate =change in OD340/min
Assay type: protein assay
recorded-endpoint: Rate (delta OD340 min-1)
API doc: respond with a numeric literal and nothing else, no unit.

>  <line-notation>
CCNCCCNCCCNCCCNCC1CCCCCC1

>  <recorded-endpoint>
Rate (delta OD340 min-1)

>  <test-value>
0.37

$$$$
>  <line-notation>
CCNCCCNCCCNCCCNCC1CC1

>  <recorded-endpoint>
Rate (delta OD340 min-1)

>  <test-value>
0.096

$$$$
>  <line-notation>
CCNCCCNCCCNCCCNC[C@@H](C)CC

>  <recorded-endpoint>
Rate (delta OD340 min-1)

>  <test-value>
0.69

$$$$

Proceeding to the next compound to report its Rate (delta OD340 min-1).
Consider the compound NCCCNCCCCNCCCN and give its recorded Rate (delta OD340 min-1). 0.14
